Data provenance is PubChem BioAssay AID1996.

Items are presented alongside their recorded solubility kinetic.
- stated conditions: buffer; pH 7.4; 200.0 µM
Lab book: enter the figure in µg/mL, no units written.

// known answers, use as guide
> print(dat)
                                   compound  result.value
1  O=C(/C=C/c1ccc(Cl)c([N+](=O)[O-])c1)c1ccc(O)cc1           3.9
2       N/C(=N\OC(=O)CCCc1ccccc1)c1ccccc1Cl          11.4
3      O=C(O)COCC(=O)Nc1ccc(OCCc2ccccc2)cc1          45.4
4   COC(=O)c1ccc(S(=O)(=O)NCCc2ccccc2OC)n1C            23
5  CCCS(=O)(=O)N1CCCC(C(=O)c2cccc(Cl)c2)C1 (stereo not given)          44.7

Reported solubility kinetic of N/C(=N\OC(=O)c1cccc2ccccc12)c1ccncc1 : 31.3

Reported solubility kinetic of CCOc1ccc(NC(=S)Nc2cccc3ccccc23)cc1 : 2

Reported solubility kinetic of Cn1cccc1C(=O)OCC(=O)Nc1ccc2c(c1)OCCO2 : 4.8

Reported solubility kinetic of O=C1C2C3C=CC(CC3)C2C(=O)N1c1ccccc1[N+](=O)[O-] (stereo not given) : 14.5

Reported solubility kinetic of Cn1c(=O)cc(Nc2ccc(Cl)cc2)[nH]c1=O : 8.7

Reported solubility kinetic of COc1ccc(S(=O)(=O)N(Cc2ccccc2)c2ccccc2C(=O)O)cc1 : 53.7

Reported solubility kinetic of CN(Cc1nc2ccccc2c(=O)[nH]1)C(=O)c1cccc(S(=O)(=O)N2CCc3ccccc32)c1 : 36.5

Reported solubility kinetic of C=CCN1CCN(C(=O)CCc2ccccc2)CC1 : 35.6

---

- stated conditions: buffer; pH 7.4; 200.0 µM
readout label: solubility kinetic

> print(dat)
                          compound  result.value
1   O=C(NCCc1ccc(Cl)cc1Cl)c1cccnc1  > 44.3 µg/mL
2  O=C(Cc1cccc(C(F)(F)F)c1)N1CCCC1  > 38.6 µg/mL
3         COCC(=O)Nc1ccc(Br)c(C)c1  > 38.7 µg/mL

Reported solubility kinetic of Cc1ccc(S(=O)(=O)N2CCNC(=O)C2)c(C)c1 : > 40.2 µg/mL

Reported solubility kinetic of O=C(CCN=C1NS(=O)(=O)c2ccccc21)NCc1ccccc1F : > 54.2 µg/mL

Reported solubility kinetic of COc1cccc(-c2noc(CCCC(=O)N3CCOCC3)n2)c1 : > 49.7 µg/mL

Reported solubility kinetic of Cc1ccc(NC(=O)C2CCCN2C(=O)OC(C)(C)C)cc1C (configuration not stated) : > 47.8 µg/mL

---

- stated conditions: buffer; pH 7.4; 200.0 µM
Items are presented alongside their recorded solubility kinetic.

// known answers, use as guide
> print(dat)
                                   compound       readout.label  result.value
1   O=C(Nc1ccccc1)Nc1nc(-c2ccc(F)c(F)c2)cs1  solubility kinetic   < 0.2 µg/mL
2             CC(C)c1ccc(NC(=O)N2CCOCC2)cc1  solubility kinetic  > 37.2 µg/mL
3  O=C(O)CCSc1nnc(SCC(=O)NC2CCS(=O)(=O)C2)s1 (centres undefined)  solubility kinetic  > 59.6 µg/mL

Reported solubility kinetic of Cc1ccc(C(=O)O)cc1N=Nc1c(O)[nH]c(=O)[nH]c1=O : > 43.5 µg/mL

---

- stated conditions: buffer; pH 7.4; 200.0 µM
Items are presented alongside their recorded solubility kinetic.

// known answers, use as guide
> print(dat)
                                   molecule  result.value
1  CC(C)C(NC(=O)C1CCCCC1)C(=O)NC1CCCC(C)C1C (configuration not stated)     3.9 µg/mL
2               O=C(Cn1nc(Cl)nc1Cl)c1ccccc1  > 38.4 µg/mL
3    Cn1ccnc1SCC(=O)Nc1nc2c(F)c(F)c(F)cc2s1     0.6 µg/mL
4  CN1CCN(c2c(F)cc([N+](=O)[O-])c(N)c2Br)CC1    > 50 µg/mL
5  C[C@]12CS(=O)(=O)C[C@H]1SC(=S)N2c1ccccc1  > 44.9 µg/mL

Reported solubility kinetic of Cc1ccc(NC(=O)C(C)C(=O)Nc2ccc(C)cc2)cc1 : 1.5 µg/mL

Reported solubility kinetic of O=C1CCC(C(=O)Nc2ccc(Cl)cc2)N1 (configuration not stated) : > 35.8 µg/mL

---

Items are presented alongside their recorded solubility kinetic.
- stated conditions: buffer; pH 7.4; 200.0 µM
Lab book: enter the figure in µg/mL, no units written.

> print(dat)
                                   compound       readout.label  result.value
1  Cc1nc2ccc(C(=O)N3CCN(Cc4ccccc4)CC3)cc2[nH]1  solubility kinetic          49.7
2    CC(=O)c1cc(C(=O)Nc2ccc3ccccc3c2)c(C)o1  solubility kinetic          34.5
3          N/C(=N\OC(=O)c1cccnc1)c1ccccc1Cl  solubility kinetic          38.9

Then there is this compound:
Reported solubility kinetic of O=[N+]([O-])c1ccccc1S(=O)(=O)NCCSc1ccccc1 : 16.5

---

- stated conditions: buffer; pH 7.4; 200.0 µM
readout label: solubility kinetic

// known answers, use as guide
> print(dat)
                                   compound  result.value
1  CC1CCCN(c2cc(N(C)CCO)c([N+](=O)[O-])c3nonc23)C1 (stereo not given)  > 50.3 µg/mL
2    CCC(=O)Nc1ccc(NC(=O)c2cccc3ccccc23)cc1   < 0.3 µg/mL
3  CN(C)c1ccc(C=C2C(=O)NC(=O)NC2=O)cc1[N+](=O)[O-]  > 45.6 µg/mL
4  O=C(NCCO)C(=O)Nc1cc2c3c(c1)CCC(=O)N3CCC2  > 47.6 µg/mL

Reported solubility kinetic of O=C(NN=C1CCCCCCC1)c1ccc(F)cc1 : > 39.3 µg/mL

---

Items are presented alongside their recorded solubility kinetic.
- stated conditions: buffer; pH 7.4; 200.0 µM
Lab book: enter the figure in µg/mL, no units written.

// known answers, use as guide
> print(dat)
                                   molecule       readout.label  unit.of.measurement  result.value
1  CCOc1ccc(N(C)Cc2cc(=O)oc3ccc(OC)cc23)cc1  solubility kinetic                µg/mL           8.1
2   O=C(CNC(=O)C1CCCCC1)OCC(=O)c1cccc(Cl)c1  solubility kinetic                µg/mL          46.8
3  COc1cc(S(=O)(=O)N2CCN(Cc3ccc4c(c3)OCO4)CC2)ccc1NC(C)=O.Cl  solubility kinetic                µg/mL          10.5
4      O=C(NCc1ccc2c(c1)OCO2)Nc1ccc2nsnc2c1  solubility kinetic                µg/mL           2.5
5     CC(=O)CCc1ccc(OCCCOc2cccc3cccnc23)cc1  solubility kinetic                µg/mL          25.5

Reported solubility kinetic of CCc1ccc(N2CC(C(=O)N3CCCC3)CC2=O)cc1 (stereo not drawn) : 35.2

Reported solubility kinetic of COc1ccccc1NC(=O)c1sc(Cl)nc1C : 36.8

Reported solubility kinetic of O=C(NCc1ccccn1)Nc1ccc(Br)cc1 : 14.9

Reported solubility kinetic of CC(=O)Nc1ccc(NC(=O)c2ccc(COc3ccccc3)cc2)cc1 : 0.6

---

- stated conditions: buffer; pH 7.4; 200.0 µM
Items are presented alongside their recorded log10 solubility kinetic.
The common logarithm of solubility kinetic in µg/mL is what is listed.

// known answers, use as guide
> print(dat)
                                   molecule  result.value
1   CNc1nc(-c2ccc(S(=O)(=O)N3CCCCC3)cc2)cs1          0.45
2     Cc1ccc2oc(=O)c(/C=C(\O)c3ccccc3)nc2c1          1.57
3  CCOC(=O)/C=C1\SCC(=O)N1CC(=O)Nc1cc(S(=O)(=O)N(C)C)ccc1C          1.42
4  O=C(Nc1ccc2c(c1)OCO2)C1CC(=O)N(c2ccc3c(c2)OCCO3)C1 (configuration not stated)          0.56

Reported log10 solubility kinetic of O=C(c1ccc(Sc2ccccc2)c([N+](=O)[O-])c1)N1CCOCC1 : 1.70

Reported log10 solubility kinetic of CC(Oc1ccccc1)C(=O)Nc1nc(-c2ccncc2)cs1 (configuration not stated) : 0.41

---

- stated conditions: buffer; pH 7.4; 200.0 µM
readout label: solubility kinetic

> print(dat)
                                   compound  result.value
1        CCN1CCN(Cc2cc(=O)oc3ccc(C)cc23)CC1    > 43 µg/mL
2  COc1ccc(C=NOCC(=O)OCC(=O)Nc2ccc(OC)cc2)cc1    16.1 µg/mL
3  O=C1CCC([N+](=O)[O-])C(c2cccc([N+](=O)[O-])c2)N1 (configuration not stated)  > 39.8 µg/mL

Reported solubility kinetic of OC(CC#CCN1CCCCC1)(c1ccccc1)c1ccccc1 : > 47.9 µg/mL

Reported solubility kinetic of CCN(CC)C1CC(=O)N(c2cccc(Cl)c2)C1=O (configuration not stated) : > 42.1 µg/mL

Reported solubility kinetic of CC1CCCN(CCS(=O)(=O)c2ccccc2)C1 (configuration not stated) : 39.5 µg/mL

Reported solubility kinetic of N#Cc1cccc(NC(=O)CC2CCCC2)c1 : 33.1 µg/mL

Reported solubility kinetic of COCC(=O)N1CCN(c2nc3ccccc3o2)CC1 : > 41.3 µg/mL

Reported solubility kinetic of Cc1cnc(NS(=O)(=O)c2ccc(Cl)cc2)c(Br)c1 : > 54.2 µg/mL

Reported solubility kinetic of NC(=O)C1CCN(C(=O)Nc2csc3ccccc23)CC1 : 42 µg/mL

Reported solubility kinetic of O=C(Nc1ccc(N2CCOCC2)cc1N1CCOCC1)c1ccccc1 : > 55.1 µg/mL
